// data source = the supplement of paper PMC4466140

- experimental system: CaMyo5
- assay protocol: SPOT peptide array binding signal intensity (averaged, normalized) (arbitrary units (background-subtracted, floor 0; scale differs between SH3 domains)); higher = stronger binding of the SH3 domain to the peptide
experimental endpoint: SPOT peptide array binding signal intensity
Numbers only.

Known results for binders:
>  <binder>
PPPPPPPPPPLPQSL

>  <recorded measurement>
156

$$$$
>  <binder>
YSRKKLPVVLSKMTL

>  <recorded measurement>
4.75

$$$$
>  <binder>
NSVPIMPTLPPRPYI

>  <recorded measurement>
27.5

$$$$
>  <binder>
IHTRRPSSTSQYLIR

>  <recorded measurement>
208

$$$$

Take each entry in turn and give its SPOT peptide array binding signal intensity.
1. DLPLPDLPPEPPTEL
2. SSTPTTPERPKRKSG
3. RRGPAPPPPPRASRP

Reply:
0.75
0.25
9
